Data origin: patent US20090054454A1

Molecular target: Human 5-HT Transporter (Homo sapiens)
Sequence (P31645 whole entry): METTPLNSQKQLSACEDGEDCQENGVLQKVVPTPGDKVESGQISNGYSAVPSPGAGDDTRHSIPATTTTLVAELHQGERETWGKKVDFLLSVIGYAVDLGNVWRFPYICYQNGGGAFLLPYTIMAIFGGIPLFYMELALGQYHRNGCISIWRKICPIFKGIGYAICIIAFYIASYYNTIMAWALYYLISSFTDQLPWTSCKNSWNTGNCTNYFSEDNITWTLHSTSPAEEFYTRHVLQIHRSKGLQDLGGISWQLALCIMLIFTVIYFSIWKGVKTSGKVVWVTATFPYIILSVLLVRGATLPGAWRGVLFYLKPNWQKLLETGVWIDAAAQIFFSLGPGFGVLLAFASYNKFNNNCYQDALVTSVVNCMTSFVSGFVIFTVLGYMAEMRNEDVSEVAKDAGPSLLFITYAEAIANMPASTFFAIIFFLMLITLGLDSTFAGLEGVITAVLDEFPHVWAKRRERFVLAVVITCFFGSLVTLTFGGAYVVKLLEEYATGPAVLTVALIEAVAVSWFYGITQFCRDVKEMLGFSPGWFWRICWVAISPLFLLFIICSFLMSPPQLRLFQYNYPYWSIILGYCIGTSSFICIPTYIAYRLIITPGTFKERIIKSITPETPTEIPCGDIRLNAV
Experiment: Inhibition of 3H-5-HT Uptake by Cells Possessing the Human 5-HT Transporter (HC 5HT Transporter), Jar cells
Settings: HC-5HTC Transporter Ki (nM), Jar cells treated with staurosporine
Doc: threshold 100 nM (exclusive). Items with Ki beneath it return criterion met; others return criterion not met.

{"columns": ["compound", "class-label"],
 "data": [
  ["CC(CN1CCN(c2cc(F)cc3cccnc23)CC1)c1coc2ccccc12 (stereo not shown)", "criterion not met"],
  ["COc1ccc2occ(CCN3CCN(c4cc(Cl)cc5cccnc45)CC3)c2c1", "criterion not met"],
  ["COc1ccc2occ(CC(C)N3CCN(c4cc(Cl)cc5cccnc45)CC3)c2c1 (stereo not shown)", "criterion met"],
  ["COc1ccc2c(CCN3CCN(c4cc(C)cc5cccnc45)CC3)coc2c1", "criterion not met"],
  ["COc1cc(N2CCN(C(C)Cc3coc4c(OC)cccc34)CC2)c2ncccc2c1 (stereo not shown)", "criterion met"]
]}

Inquiry: Bench note: check whether COc1ccc2occ([C@H]3CC[C@H](N4CCN(c5ccc(Cl)c6cccnc56)CC4)CC3)c2c1 shows Ki below 100 nM
Reply text: criterion not met

Inquiry: Bench note: check whether Clc1cc(N2CCN(CCc3coc4cc(Cl)ccc34)CC2)c2ncccc2c1 shows Ki below 100 nM
Reply text: criterion not met

Inquiry: Bench note: check whether COc1ccc2occ([C@H]3CC[C@@H](N4CCN(c5ccc(Cl)c6cccnc56)CC4)CC3)c2c1 shows Ki below 100 nM
Reply text: criterion met

Inquiry: Bench note: check whether COc1ccc2occ(CCN3CCN(c4cc(C(C)C)cc5cccnc45)CC3)c2c1 shows Ki below 100 nM
Reply text: criterion not met

Inquiry: Bench note: check whether Cc1cc(N2CCN(CCc3coc4ccc(Cl)cc34)CC2)c2ncccc2c1 shows Ki below 100 nM
Reply text: criterion met

Inquiry: Bench note: check whether Fc1ccc(N2CCN([C@H]3CC[C@H](c4coc5ccccc54)CC3)CC2)c2ncccc12 shows Ki below 100 nM
Reply text: criterion not met

Inquiry: Bench note: check whether Cc1cc(N2CCN(CCc3coc4ccccc34)CC2)c2ncccc2c1 shows Ki below 100 nM
Reply text: criterion met

Inquiry: Bench note: check whether COc1cccc2c(CCN3CCN(c4cc(Cl)cc5cccnc45)CC3)coc12 shows Ki below 100 nM
Reply text: criterion met
